Molecular target: Adenosine receptor A2a (Homo sapiens, UniProt P29274); further: assay procedure not described here
Sequence (P29274 whole entry): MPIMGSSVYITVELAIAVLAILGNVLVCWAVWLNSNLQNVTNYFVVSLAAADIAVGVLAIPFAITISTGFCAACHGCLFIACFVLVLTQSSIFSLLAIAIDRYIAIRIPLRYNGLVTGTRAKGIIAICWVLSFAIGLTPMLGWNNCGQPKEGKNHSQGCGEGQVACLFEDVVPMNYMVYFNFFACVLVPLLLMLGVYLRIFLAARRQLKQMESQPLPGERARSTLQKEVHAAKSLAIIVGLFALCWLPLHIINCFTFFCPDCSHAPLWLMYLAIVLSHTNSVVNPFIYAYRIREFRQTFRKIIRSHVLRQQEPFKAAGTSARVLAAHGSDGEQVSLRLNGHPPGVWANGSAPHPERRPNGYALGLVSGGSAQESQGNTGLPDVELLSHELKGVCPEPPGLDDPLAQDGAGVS
Where a SMILES comes first, the peptide text is derived from it. [ ]: non-standard residue; d: D form. pGlu = O=C1CC[C@@H](C(=O)O)N1; Thz = O=C(O)[C@@H]1CSCN1
This section presents compounds with their documented AC50 values.

Incoming: Which measured AC50 value corresponds to CCC(=O)O[C@](Cc1ccccc1)(c1ccccc1)[C@H](C)CN(C)C [PROPOXYPHENE] ?
Outgoing: > 30 µM

Incoming: # repeat for Cc1ccccc1-n1c(CF)nc2ccc(N)cc2c1=O [AFLOQUALONE]
Outgoing: > 30 µM

Incoming: # repeat for CC(c1cc2ccccc2s1)N(O)C(N)=O (centres undefined) [ZILEUTON]
Outgoing: > 10 µM

Incoming: # repeat for C[C@]12CCC(=O)C[C@@H]1CC[C@@H]1[C@@H]2CC[C@]2(C)[C@@H](O)CC[C@@H]12 [STANOLONE]
Outgoing: > 30 µM

Incoming: # repeat for O=C(O)c1ccc(NC(=O)[C@H](Cc2ccc(O)cc2)NC(=O)c2ccccc2)cc1 [BENTIROMIDE]
Outgoing: > 10 µM

Please look at the following compound next.
Incoming: Which measured AC50 value corresponds to O=C1CC[C@@H](C(=O)N2CSC[C@H]2C(=O)O)N1 [PIDOTIMOD] ([pGlu]-[Thz]-OH) ?
Outgoing: > 30 µM
